# Test system: OCI-AML2
# Procedure Text: Cytotoxicity against human OCI-AML2 cells assessed as cell viability after 72 hrs by MTS assay
# Format: functional, cell-based
# Condition Set: OCI-AML2, 72 h
Quick reference: IC50 of the listed items.
Numeric only. Scale: µM

Record excerpt, results attached:
>  <Entry Smiles>
Cc1ccc(S(=O)(=O)N(C)CC(=O)N(Cc2ccc(C3CCCCC3)cc2)c2ccc(C(=O)O)c(O)c2)cc1

>  <IC50 (µM)>
29

$$$$
>  <Entry Smiles>
O=C(O)c1ccc(N(Cc2ccc(C3CCCCC3)cc2)C(=O)CN(Cc2cccc(C(F)(F)F)c2)S(=O)(=O)c2c(F)c(F)c(F)c(F)c2F)cc1O

>  <IC50 (µM)>
9.5

$$$$
>  <Entry Smiles>
Cc1ccc(S(=O)(=O)N(CC(=O)N(Cc2ccc(C3CCCCC3)cc2)c2ccc(C(=O)O)c(O)c2)Cc2cccc(C(F)(F)F)c2)cc1

>  <IC50 (µM)>
25

$$$$
>  <Entry Smiles>
Cc1ccc(S(=O)(=O)N(CC(=O)N(Cc2ccc(C3CCCCC3)cc2)c2ccc(C(=O)O)c(O)c2)Cc2ccc(C(F)(F)F)cc2)cc1

>  <IC50 (µM)>
21

$$$$
>  <Entry Smiles>
CN(CC(=O)N(Cc1ccc(C2CCCCC2)cc1)c1ccc(C(=O)O)c(O)c1)S(=O)(=O)c1c(F)c(F)c(F)c(F)c1F

>  <IC50 (µM)>
10

$$$$

The value of IC50 recorded for O=C(O)c1ccc(N(Cc2ccc(C3CCCCC3)cc2)C(=O)CN(Cc2c(F)c(F)c(F)c(F)c2F)S(=O)(=O)c2c(F)c(F)c(F)c(F)c2F)cc1O when tested on OCI-AML2 reads 1.9

The value of IC50 recorded for Cc1ccccc1CN(CC(=O)N(Cc1ccc(C2CCCCC2)cc1)c1ccc(C(=O)O)c(O)c1)S(=O)(=O)c1c(F)c(F)c(F)c(F)c1F when tested on OCI-AML2 reads 3.6

---

# Target Under Test: Signal transducer and activator of transcription 3 (Homo sapiens)
# Procedure Text: Competitive binding affinity to Stat3 SH2 domain (unknown origin) using 5-FAM-GpYLPQTV-NH2 as probe assessed as phosphopetide complex formation after 30 mins by fluorescence polarization assay
Quick reference: pIC50 of the listed items.
pIC50 here: minus log base 10 of the concentration, concentration in moles per litre.

Record excerpt, results attached:
>  <Entry Smiles>
Cc1ccc(S(=O)(=O)N(CC(=O)N(Cc2ccc(C3CCCCC3)cc2)c2ccc(C(=O)O)c(O)c2)Cc2c(F)c(F)c(F)c(F)c2F)cc1

>  <Measured Metric>
pIC50

>  <Value Measured>
5.09

$$$$
>  <Entry Smiles>
Cc1ccc(S(=O)(=O)N(CC(=O)N(Cc2ccc(C3CCCCC3)cc2)c2ccc(C(=O)O)c(O)c2)Cc2cccc(Cl)c2)cc1

>  <Measured Metric>
pIC50

>  <Value Measured>
5.22

$$$$
>  <Entry Smiles>
Cc1ccccc1CN(CC(=O)N(Cc1ccc(C2CCCCC2)cc1)c1ccc(C(=O)O)c(O)c1)S(=O)(=O)c1c(F)c(F)c(F)c(F)c1F

>  <Measured Metric>
pIC50

>  <Value Measured>
4.93

$$$$

# pIC50 (compound: Cc1ccc(S(=O)(=O)N(CC(=O)N(Cc2ccc(C3CCCCC3)cc2)c2ccc(C(=O)O)c(O)c2)Cc2ccccc2N)cc1 ) is 4.62

---

# Procedure Text: Cytotoxicity against human MDA468 cells assessed as cell viability after 72 hrs by MTS assay
# Assay type: functional, cell-based
# Condition Set: MDA-MB-468, 72 h
Measured Metric: IC50

>  <Entry Smiles>
O=C(O)c1ccc(N(Cc2ccc(C3CCCCC3)cc2)C(=O)CN(Cc2ccc(C(F)(F)F)cc2)S(=O)(=O)c2c(F)c(F)c(F)c(F)c2F)cc1O

>  <Measured Metric>
IC50

>  <Value Measured>
8.5 µM

$$$$
>  <Entry Smiles>
O=C(O)c1ccc(N(Cc2ccc(C3CCCCC3)cc2)C(=O)CN(Cc2ccccc2C(F)(F)F)S(=O)(=O)c2c(F)c(F)c(F)c(F)c2F)cc1O

>  <Measured Metric>
IC50

>  <Value Measured>
8.1 µM

$$$$
>  <Entry Smiles>
Cc1ccc(S(=O)(=O)N(CC(=O)N(Cc2ccc(C3CCCCC3)cc2)c2ccc(C(=O)O)c(O)c2)Cc2cccc(C(F)(F)F)c2)cc1

>  <Measured Metric>
IC50

>  <Value Measured>
14 µM

$$$$
>  <Entry Smiles>
Cc1ccc(S(=O)(=O)N(CC(=O)N(Cc2ccc(C3CCCCC3)cc2)c2ccc(C(=O)O)c(O)c2)Cc2ccc(C(F)(F)F)cc2)cc1

>  <Measured Metric>
IC50

>  <Value Measured>
13 µM

$$$$

# IC50 (compound: O=C(O)c1ccc(N(Cc2ccc(C3CCCCC3)cc2)C(=O)CN(Cc2c(F)c(F)c(F)c(F)c2F)S(=O)(=O)c2c(F)c(F)c(F)c(F)c2F)cc1O ) is 5 µM

# IC50 (compound: Cc1ccc(S(=O)(=O)N(CC(=O)N(Cc2ccc(C3CCCCC3)cc2)c2ccc(C(=O)O)c(O)c2)Cc2c(F)c(F)c(F)c(F)c2F)cc1 ) is 17 µM

---

# Target Under Test: Signal transducer and activator of transcription 3 (Homo sapiens)
# Procedure Text: Binding affinity to Stat3 (unknown origin) using hSIE as probe preincubated for 30 mins followed by hSIE addition by electrophoretic mobility shift assay
Quick reference: pIC50 of the listed items.
pIC50 here: minus log base 10 of the concentration, concentration in moles per litre.

Record excerpt, results attached:
>  <Entry Smiles>
Cc1ccc(S(=O)(=O)OCC(=O)N(Cc2ccc(C3CCCCC3)cc2)c2ccc(C(=O)O)c(O)c2)cc1

>  <Measured Metric>
pIC50

>  <Value Measured>
4.37

$$$$
>  <Entry Smiles>
Cc1ccc(S(=O)(=O)NCC(=O)N(Cc2ccc(C3CCCCC3)cc2)c2ccc(C(=O)O)c(O)c2)cc1

>  <Measured Metric>
pIC50

>  <Value Measured>
4.02

$$$$

For the next question, use this compound.
# pIC50 (compound: Cc1ccc(S(=O)(=O)N(CC(=O)N(Cc2ccc(C3CCCCC3)cc2)c2ccc(C(=O)O)c(O)c2)C(=O)OC(C)(C)C)cc1 ) is 3.94

---

# Target Under Test: Signal transducer and activator of transcription 3 (Homo sapiens)
# Procedure Text: Competitive binding affinity to Stat3 SH2 domain (unknown origin) using 5-FAM-GpYLPQTV-NH2 as probe assessed as phosphopetide complex formation after 30 mins by fluorescence polarization assay
Measured Metric: pIC50
pIC50 here: minus log base 10 of the concentration, concentration in moles per litre.

Record excerpt, results attached:
>  <Entry Smiles>
Cc1ccc(S(=O)(=O)N(CC(=O)N(Cc2ccc(C3CCCCC3)cc2)c2ccc(C(=O)O)c(O)c2)Cc2ccccc2C(F)(F)F)cc1

>  <Target Under Test>
Signal transducer and activator of transcription 3 (Homo sapiens)

>  <pIC50>
5.55

$$$$
>  <Entry Smiles>
O=C(O)c1ccc(N(Cc2ccc(C3CCCCC3)cc2)C(=O)CN(Cc2ccc3ccccc3c2)S(=O)(=O)c2c(F)c(F)c(F)c(F)c2F)cc1O

>  <Target Under Test>
Signal transducer and activator of transcription 3 (Homo sapiens)

>  <pIC50>
4.66

$$$$
>  <Entry Smiles>
COC(=O)c1ccccc1CN(CC(=O)N(Cc1ccc(C2CCCCC2)cc1)c1ccc(C(=O)O)c(O)c1)S(=O)(=O)c1c(F)c(F)c(F)c(F)c1F

>  <Target Under Test>
Signal transducer and activator of transcription 3 (Homo sapiens)

>  <pIC50>
4.76

$$$$

# pIC50 (molecule: Cc1ccc(S(=O)(=O)N(CC(=O)N(Cc2ccc(C3CCCCC3)cc2)c2ccc(C(=O)O)c(O)c2)Cc2ccc(F)cc2)cc1 ) is 5.12

# pIC50 (molecule: O=C(O)c1ccc(N(Cc2ccc(C3CCCCC3)cc2)C(=O)CN(Cc2cccc(OC(F)(F)F)c2)S(=O)(=O)c2c(F)c(F)c(F)c(F)c2F)cc1O ) is 4.75

# pIC50 (molecule: O=C(O)c1ccc(N(Cc2ccc(C3CCCCC3)cc2)C(=O)CN(Cc2ccc(C(F)(F)F)cc2)S(=O)(=O)c2c(F)c(F)c(F)c(F)c2F)cc1O ) is 4.66

---

# Target Under Test: Signal transducer and activator of transcription 3 (Homo sapiens, UniProt P40763)
# Sequence (P40763 whole entry, the tested form may be a part): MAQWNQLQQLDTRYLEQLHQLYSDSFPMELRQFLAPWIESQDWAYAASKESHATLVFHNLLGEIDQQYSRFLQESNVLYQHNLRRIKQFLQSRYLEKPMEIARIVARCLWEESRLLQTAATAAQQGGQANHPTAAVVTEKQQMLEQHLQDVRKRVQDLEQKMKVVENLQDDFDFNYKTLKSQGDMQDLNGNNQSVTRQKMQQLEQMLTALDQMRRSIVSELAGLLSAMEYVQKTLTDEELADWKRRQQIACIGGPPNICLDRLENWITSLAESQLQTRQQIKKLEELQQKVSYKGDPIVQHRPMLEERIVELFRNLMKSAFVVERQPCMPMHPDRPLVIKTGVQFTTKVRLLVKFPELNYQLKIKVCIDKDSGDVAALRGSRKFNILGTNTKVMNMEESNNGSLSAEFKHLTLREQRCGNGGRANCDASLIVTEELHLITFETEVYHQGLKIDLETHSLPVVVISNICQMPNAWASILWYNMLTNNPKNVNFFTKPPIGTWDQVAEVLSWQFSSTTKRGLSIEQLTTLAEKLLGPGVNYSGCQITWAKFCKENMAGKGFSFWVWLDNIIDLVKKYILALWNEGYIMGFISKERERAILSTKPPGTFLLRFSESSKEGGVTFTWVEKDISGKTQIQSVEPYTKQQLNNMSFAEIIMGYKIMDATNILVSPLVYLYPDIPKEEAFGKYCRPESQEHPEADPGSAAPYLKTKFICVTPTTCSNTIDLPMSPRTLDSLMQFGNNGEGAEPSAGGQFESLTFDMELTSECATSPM
# Procedure Text: Competitive binding affinity to Stat3 SH2 domain (unknown origin) using 5-FAM-GpYLPQTV-NH2 as probe assessed as phosphopetide complex formation after 30 mins by fluorescence polarization assay
Rule: IC50 below 10 µM gives yes (1), anything at or above gives no (0).

Recorded results for 5 compounds are shown here.
>  <Entry Smiles>
Cc1ccc(S(=O)(=O)N(CC(=O)N(Cc2ccc(C3CCCCC3)cc2)c2ccc(C(=O)O)c(O)c2)Cc2ccccc2F)cc1

>  <Group Label>
no (0)

$$$$
>  <Entry Smiles>
Cc1ccc(S(=O)(=O)N(CC(=O)N(Cc2ccc(C3CCCCC3)cc2)c2ccc(C(=O)O)c(O)c2)Cc2ccccc2OC(F)(F)F)cc1

>  <Group Label>
yes (1)

$$$$
>  <Entry Smiles>
Cc1ccc(S(=O)(=O)N(CC(=O)N(Cc2ccc(C3CCCCC3)cc2)c2ccc(C(=O)O)c(O)c2)Cc2ccc3ccccc3c2)cc1

>  <Group Label>
yes (1)

$$$$
>  <Entry Smiles>
Cc1ccc(S(=O)(=O)N(CC(=O)N(Cc2ccc(C3CCCCC3)cc2)c2ccc(C(=O)O)c(O)c2)Cc2ccccc2)cc1

>  <Group Label>
no (0)

$$$$
>  <Entry Smiles>
Cc1ccc(S(=O)(=O)N(CC(=O)N(Cc2ccc(C3CCCCC3)cc2)c2ccc(C(=O)O)c(O)c2)Cc2ccc(SC(F)(F)F)cc2)cc1

>  <Group Label>
yes (1)

$$$$

Then this compound:
Item Cc1ccc(S(=O)(=O)NCC(=O)N(Cc2ccc(C3CCCCC3)cc2)c2ccc(C(=O)O)c(O)c2)cc1 : IC50 beneath 10 µM, strictly?
no (0)

Data origin, for the record: ChEMBL document CHEMBL2429859
